- Test system: SF-295 CNS
- method_notes: NCI tumour cell line growth inhibition, 48 h
The following molecules are shown together with reported TGI values.
measure: TGI

molecule: COc1cc2c(cc1O)NC(=O)[C@@H]1C[C@@H](O)CN1C2=O
observed_result: > 100 µM
//
molecule: CN(C)c1cccc2c(S(=O)(=O)NCCN)cccc12
observed_result: > 100 µM
//
molecule: O=c1c2[nH]cnc2n(-c2ccccc2)c(=S)n1-c1ccccc1
observed_result: > 100 µM
//
molecule: CCOC(=O)[C@@H](C)C[C@H](Cc1ccccc1)NC(=O)c1csc([C@@H](C[C@H](C(C)C)N(C)C(=O)CNC(=O)[C@H]2CCCCN2C)OC(C)=O)n1
observed_result: 6.85 µM
//
molecule: CN1CCCc2nc3ccccc3n2C1
observed_result: > 100 µM
//
molecule: CC1(C)C(=O)/C(=C/c2ccccc2)C(C)(C)C1(C)C
observed_result: > 100 µM
//
molecule: BrC1(c2ccccc2)C[n+]2c(-c3ccccc3)cc(-c3ccccc3)cc2-c2ccccc21 (stereo not given)
observed_result: 5.68 µM
//
molecule: NC1=NC(c2ccccc2Cl)c2c(n[nH]c2N)N1 (stereo not given)
observed_result: > 100 µM
//
molecule: COCOC1CCCC[C@@]1(OCCOCCO[C@@]1(c2ccccc2)CCCC[C@H]1OCOC)c1ccccc1 (stereo not given in full)
observed_result: > 100 µM
//
molecule: C[n+]1c2ccccc2n2c3ccccc3c(NCCCn3ccnc3)c(C#N)c21
observed_result: 17.4 µM

----------
- Test system: PC-3 prostate
- method_notes: NCI tumour cell line growth inhibition, 48 h
The following compounds are shown together with reported GI50 values.

compound: O=C(CCCCN1CCN(CCCCC(=O)Nc2ccccc2C#C/C=C\C#Cc2ccccc2C(F)(F)F)CC1)Nc1ccccc1C#C/C=C\C#Cc1ccccc1C(F)(F)F
GI50: 13.9 µM
--
compound: O=C1Nc2ccc(-c3cccnc3)cc2/C1=C/c1cc(Br)c(O)c(Br)c1
GI50: 9.05 µM
--
compound: O=C(CI)NC(=O)NC(=O)NCc1ccccc1
GI50: 15.1 µM
--
compound: CCOC(=O)c1cn(C)c2c(OC)c3ccccc3c(OC)c2c1=O
GI50: 29 µM
--
compound: CN(C)C1C(=O)C(C(N)=O)=C(O)C2(O)C(=O)C3=C(O)c4c(O)cccc4C(C)(O)C3CC12.[Cl][Sb]([Cl])[Cl] (stereo not given)
GI50: 3.05 µM
--
compound: CCN(CC)CCCC(Nc1c2ccc(Cl)cc2nc2ccc(OC)cc12)c1ccc(Cl)cc1 (stereo not given)
GI50: 1.55 µM
--
compound: S=C(Sc1ccc(Cl)cc1)Sc1ccc(Cl)cc1
GI50: 1.58 µM
--
compound: OCC1OC(OC2(CO)OC(CO)C(O)C2O)C(O)C(O)C1O (stereo not given)
GI50: > 100 µM
--
compound: O=C1c2cccc3c(N4CCOCC4)ccc(c23)C(=O)N1CCN1CCN(CCCCCN2CCN(CCN3C(=O)c4cccc5c(N6CCOCC6)ccc(c45)C3=O)CC2)CC1
GI50: > 100 µM
--
compound: CCOC(=O)[C@@H](C)C[C@H](Cc1ccccc1)NC(=O)c1csc([C@@H](C[C@H](C(C)C)N(C)C(=O)CNC(=O)[C@H]2CCCCN2C)OC(C)=O)n1
GI50: 0.508 µM

----------
The following compounds are shown together with reported TGI values.
- Tested on: SNB-78 CNS
- method_notes: NCI tumour cell line growth inhibition, 48 h

compound: Cc1cc(-c2ccc(N=Nc3ccc4c(S(=O)(=O)O)cc(S(=O)(=O)O)c(N)c4c3O)c(C)c2)ccc1N=Nc1ccc2c(S(=O)(=O)O)cc(S(=O)(=O)O)c(N)c2c1O
target_or_system: SNB-78 CNS
bound_operator: >
TGI [µM]: 100

compound: CC(C)C(NCc1c2ccccc2[n+](C)c2ccccc12)C(=O)O (centres undefined)
target_or_system: SNB-78 CNS
bound_operator: =
TGI [µM]: 24.8

compound: N#CC(C(=O)Nc1ccccc1)C1=C(Cl)C(=O)c2ccccc2C1=O (centres undefined)
target_or_system: SNB-78 CNS
bound_operator: =
TGI [µM]: 45.9

compound: O=C1C=CC2(O)OCC3C=C4O[C@@H]5OC6(CCCCC6)O[C@@H]5C4[C@@H]2[C@@H]13 (some centres undefined)
target_or_system: SNB-78 CNS
bound_operator: =
TGI [µM]: 83.3

compound: C[n+]1cn(CC(=O)c2ccccc2)c(C(N)=O)c1N
target_or_system: SNB-78 CNS
bound_operator: >
TGI [µM]: 100

compound: Cc1ccc(-n2nc(C(OC3OC(CO)C(O)C(O)C3O)C(O)CO)c3nc4cc(C)c(C)cc4nc32)cc1 (centres undefined)
target_or_system: SNB-78 CNS
bound_operator: >
TGI [µM]: 100

compound: [C-]#[O+].[Cl][Sn]([Cl])[Cl].[Cl][Sn]([Cl])[Cl].[Pt].c1cnc2c(c1)ccc1cccnc12
target_or_system: SNB-78 CNS
bound_operator: =
TGI [µM]: 66

compound: CCOC1c2nc3ccccc3nc2-c2ccccc2N1C(C)=O (centres undefined)
target_or_system: SNB-78 CNS
bound_operator: >
TGI [µM]: 100

compound: CC(C)N(C(=O)C12C3C4C1C1C4(C#N)C3C12C(=O)O)C(C)C (centres undefined)
target_or_system: SNB-78 CNS
bound_operator: >
TGI [µM]: 100

----------
- System: MOLT-4 leukemia
- method_notes: NCI tumour cell line growth inhibition, 48 h; in the data active = GI50 below about 0.43 µM; inactive = the rest
Outcomes: active, inactive

compound: CO[C@H]1C(=O)[C@]2(C)[C@@H](OC)C[C@H]3OC[C@@]3(OC(C)=O)[C@H]2[C@H](OC(=O)c2ccccc2)[C@]2(O)C[C@H](OC(=O)[C@H](O)[C@@H](NC(=O)OC(C)(C)C)c3ccccc3)C(C)=C1C2(C)C
answer_label: active

compound: COC(=O)[C@]12CC[C@@H](C)[C@H](C)[C@@H]1C1=CC[C@@H]3[C@@]4(C)C(C=O)=C[C@@](C)(COS(C)(=O)=O)C4=CC[C@@]3(C)[C@]1(C)CC2
answer_label: active

compound: CCOC(=O)c1cn(C)c2c(OC)c3ccccc3c(OC)c2c1=O
answer_label: inactive

compound: CN(C)CCCOc1ccc(NC2=C(Cl)C(=O)C(Nc3ccc(OCCCN(C)C)cc3)=C(Cl)C2=O)cc1
answer_label: active

compound: O=c1[nH]c2ccccc2cc1-c1nnc(Cc2ccccc2)o1
answer_label: inactive

compound: CC[n+]1c(-c2ccccc2)c2cc(N)ccc2c2ccc(N)cc21
answer_label: inactive

compound: OCC1OC(OC2(CO)OC(CO)C(O)C2O)C(O)C(O)C1O (centres undefined)
answer_label: inactive

compound: NC(=O)c1nc(-c2c(F)cccc2Cl)oc1Nc1ccc(C(=O)N2CCOCC2)cc1
answer_label: inactive

compound: O=C(CCCCN1CCN(CCCCC(=O)Nc2ccccc2C#C/C=C\C#Cc2ccccc2C(F)(F)F)CC1)Nc1ccccc1C#C/C=C\C#Cc1ccccc1C(F)(F)F
answer_label: inactive

compound: OCc1ccc(-c2ccc(-c3ccc(CO)o3)o2)o1
answer_label: inactive

compound: O=C(Nc1ccc(-n2cc(-c3ccncc3)c(-c3ccc(Cl)c(O)c3)n2)cc1)c1cc(C(F)(F)F)cc(C(F)(F)F)c1
answer_label: inactive

compound: Oc1cn(-c2ccc(Cl)cc2)nc1-c1n[nH]c(=S)n1-c1ccc(F)cc1
answer_label: inactive

compound: OCCNc1nc2ccccc2c2[nH]c3ccccc3c12
answer_label: active

compound: CCc1ccc(Oc2c(-c3ccc(OCc4ccc(Cl)cc4)cc3O)nn(C)c2C(F)(F)F)cc1
answer_label: inactive

----------
The following compounds are shown together with reported TGI values.
- System: NCI-H226 lung
- method_notes: NCI tumour cell line growth inhibition, 48 h
measure: TGI (µM)

compound: COc1cc2c(cc1OC)C1=C(C=O)c3ccc(OC)c(OC)c3C(O)N1CC2 (stereo unspecified)
target_or_system: NCI-H226 lung
units_text: µM
bound_operator: >
observed_result: 100
--
compound: OC1=CN=C(c2ccccc2)Oc2ccccc21
target_or_system: NCI-H226 lung
units_text: µM
bound_operator: =
observed_result: 97.5
--
compound: OCCN1CCN(c2nc(N3CCCC3)c3nc(Cl)c(NCc4ccccc4)nc3n2)CC1
target_or_system: NCI-H226 lung
units_text: µM
bound_operator: =
observed_result: 37.8
--
compound: Oc1cn(-c2ccc(Cl)cc2)nc1-c1n[nH]c(=S)n1-c1ccc(F)cc1
target_or_system: NCI-H226 lung
units_text: µM
bound_operator: =
observed_result: 90.2
--
compound: CCN1C(=O)N(CC)C2C1NC(=S)N2/N=C/C=C/c1ccccc1 (stereo unspecified)
target_or_system: NCI-H226 lung
units_text: µM
bound_operator: >
observed_result: 100
--
compound: COc1ccc(-c2cnc(-c3ccncc3-c3cccc(OC)c3)o2)cc1
target_or_system: NCI-H226 lung
units_text: µM
bound_operator: =
observed_result: 15.6
--
compound: O=C([O-])c1ccc([I+]c2ccccc2)cc1
target_or_system: NCI-H226 lung
units_text: µM
bound_operator: >
observed_result: 100
--
compound: O=c1[nH]ncc2[nH]c3c(c12)CCc1ccccc1-3
target_or_system: NCI-H226 lung
units_text: µM
bound_operator: =
observed_result: 40.7
--
compound: CCc1c(O)nc(Nc2nc3ccccc3[nH]2)[nH]c1=O
target_or_system: NCI-H226 lung
units_text: µM
bound_operator: >
observed_result: 100
--
compound: CC1(C)C(=O)/C(=C/c2ccccc2)C(C)(C)C1(C)C
target_or_system: NCI-H226 lung
units_text: µM
bound_operator: >
observed_result: 100
--
compound: CC(C)C(NCc1c2ccccc2[n+](C)c2ccccc12)C(=O)O (stereo unspecified)
target_or_system: NCI-H226 lung
units_text: µM
bound_operator: =
observed_result: 38.6
